Attribution: patent US20130209439A1

- systemUnderTest: T1, His-HSP20 (purified recombinant His-tagged HSP20) (human, UniProt O14558 1-160)
- T1 construct: Expressed in E. coli BL21 from pET28c and purified on nickel; also called HSP20-His; HSP20-6His; not shown: His tag from the pET28c vector
- T1 sequence: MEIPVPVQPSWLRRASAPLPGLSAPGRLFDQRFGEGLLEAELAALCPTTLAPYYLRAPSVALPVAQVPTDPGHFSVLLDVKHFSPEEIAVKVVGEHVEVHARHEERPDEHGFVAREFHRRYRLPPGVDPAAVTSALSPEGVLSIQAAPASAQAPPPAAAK
- method: SPOT peptide array overlaid with purified His-Hsp20
attributeMeasured: binding result

Ac-KFKLL-NH2 (On the array SPOT-synthesised on a slide; also called peptide No 13) [Ac-KFKLL-NH2]    binds
Ac-YQNLTK-NH2 (On the array the peptide was SPOT-synthesised on a slide; the soluble form Ac-...-NH2 was made 'to resemble SPOT synthesised peptides'; also called peptide No 3) [Ac-YQNLTK-NH2]    binds
Ac-FQNLTR-NH2 (On the array SPOT-synthesised on a slide; also called peptide No 5) [Ac-FQNLTR-NH2]    binds
Ac-RFKLL-NH2 (On the array SPOT-synthesised on a slide; also called peptide No 14) [Ac-RFKLL-NH2]    binds
Ac-FQNLTK-NH2 (On the array SPOT-synthesised on a slide; also called peptide No 6) [Ac-FQNLTK-NH2]    binds
Ac-FKLLQ-NH2 (On the array SPOT-synthesised on a slide; also called peptide No 9) [Ac-FKLLQ-NH2]    binds
Ac-GFRLL-NH2 (On the array SPOT-synthesised on a slide; also called peptide No 12) [Ac-GFRLL-NH2]    binds
Ac-GFKLL-NH2 (On the array SPOT-synthesised on a slide; also called peptide No 11) [Ac-GFKLL-NH2]    binds
